Method description: Metabolic stability in human liver microsomes assessed as parent compound remaining preincubated for 10 mins followed by NADPH regenerating system addition and measured after 60 mins by LC-MS/MS analysis
Type: ADME, Microsome
Condition description: time 70 min, read-out: Stability
Endpoint: remaining at 1 h (%)
Answers are plain numbers, in %.

So, `Cc1cc(/C=C/C#N)cc(C)c1Oc1nc(Nc2ccc(C#N)c(F)c2)nc2c1COC2.Cl` ? Its remaining at 1 h was 5

###

Method description: Selectivity index, ratio of CC50 for cytotoxicity against human MT4 cells to EC50 for antiviral activity against wild type HIV-1 IIIB infected in human MT4 cells
Format: toxicity, cell-based
Condition description: read-out: Ratio CC50/EC50
Tag: Met if measured selectivity ratio is not below 700, Not met if it is.

A selection of reference data follows.
>>> class("Cc1cc(/C=C/C#N)cc(C)c1Oc1nc(NC2CCN(c3ccc(N)cc3F)CC2)nc2ccsc12")
"Met"
>>> class("Cc1cc(-c2ccc(C#N)cc2)cc(C)c1Oc1nc(Nc2ccc(C#N)c(F)c2)nc2ccsc12")
"Not met"
>>> class("Cc1cc(C#N)cc(C)c1Oc1nc(NC2CCN(c3ccc([N+](=O)[O-])cc3F)CC2)nc2ccsc12")
"Met"

From here, focus on the item given below.
Enquiry: Test whether the compound `Cc1cc(/C=C/C#N)cc(C)c1Oc1nc(NC2CCN(c3c(F)cc([N+](=O)[O-])cc3F)CC2)nc2ccsc12` records selectivity ratio of 700 or higher.
Return: Met

###

Please provide measured selectivity ratio for the entries that follow.
Method description: Selectivity index, ratio of CC50 for cytotoxicity against human MT4 cells to EC50 for antiviral activity against wild type HIV-1 IIIB infected in human MT4 cells
Assay type: toxicity, cell-based
Condition description: read-out: Ratio CC50/EC50

Please review the entries below; each comes with its answer.
>>> result("Cc1cc(-c2ccc(C#N)cc2)cc(C)c1Oc1nc(Nc2ccc(C#N)c(F)c2)nc2sccc12")
"> 3010"
>>> result("Cc1cc(-c2ccc(C#N)cc2)cc(C)c1Oc1nc(Nc2ccc(C#N)nc2)nc2sccc12")
16600
>>> result("Cc1cc(C#N)cc(C)c1Oc1nc(NC2CCN(c3c(F)cc([N+](=O)[O-])cc3F)CC2)nc2sccc12")
"> 5170"

For every listed record, write down its selectivity ratio.
1. Cc1cc(-c2ccc(F)cc2)cc(C)c1Oc1nc(Nc2ccc(C#N)c(F)c2)nc2ccsc12
2. Cc1cc(C#N)cc(C)c1Oc1nc(NC2CCN(c3ccc(N)cc3F)CC2)nc2ccsc12
3. Cc1cc(C#N)cc(C)c1Oc1nc(NC2CCN(c3c(F)cc(NS(N)(=O)=O)cc3F)CC2)nc2sccc12
4. Cc1cc(C#N)cc(C)c1Oc1nc(NC2CCN(c3ccc([N+](=O)[O-])cc3F)CC2)nc2sccc12

Return:
140
300
322
935

For every listed record, write down its selectivity ratio.
1. Cc1cc(C#N)cc(C)c1Oc1nc(NC2CCN(c3ccc(N)cc3F)CC2)nc2sccc12
2. N#C/C=C/c1cc(F)c(Oc2nc(Nc3ccc(C#N)nc3)nc3c2COC3)c(F)c1
3. Cc1cc(/C=C/C#N)cc(C)c1Oc1nc(Nc2ccc(C#N)nc2)nc2c1COC2
4. Cc1cc(C#N)cc(C)c1Oc1nc(NC2CCN(c3ccc(NS(N)(=O)=O)cc3F)CC2)nc2sccc12
5. Cc1cc(-c2ccc(F)cc2)cc(C)c1Oc1nc(Nc2ccc(C#N)nc2)nc2sccc12
6. Cc1cc(/C=C/C#N)cc(C)c1Oc1nc(NC2CCN(c3ccc([N+](=O)[O-])cc3F)CC2)nc2sccc12
7. Cc1cc(-c2ccc(C#N)cc2)cc(C)c1Oc1nc(Nc2ccc(C#N)nc2)nc2ccsc12
8. Cc1cc(/C=C/C#N)cc(C)c1Oc1nc(NC2CCN(c3ccc([N+](=O)[O-])cc3F)CC2)nc2ccsc12

Return:
1: 1300; 2: 42100; 3: 88900; 4: 2720; 5: 3; 6: > 7740; 7: 28100; 8: 101

For every listed record, write down its selectivity ratio.
1. Cc1cc(C#N)cc(C)c1Oc1nc(NC2CCN(c3ccc(N)cc3)CC2)nc2sccc12
2. N#C/C=C/c1cc(F)c(Oc2nc(Nc3ccc(C#N)c(F)c3)nc3c2COC3)c(F)c1
3. Cc1cc(C#N)cc(C)c1Oc1nc(NC2CCN(c3c(F)cc(NS(N)(=O)=O)cc3F)CC2)nc2ccsc12

Return:
[864, 145000, 357]

###

Method description: Aqueous solubility of compound at pH 7.4 at 0.1 to 10 mg
Assay type: physicochemical
Condition description: aqueous medium, dose 0.1-10 mg
Endpoint: solubility (µg/mL)
Give bare numbers, in µg/mL.

>>> measured_number("Cc1cc(/C=C/C#N)cc(C)c1Oc1nc(Nc2ccc(C#N)c(F)c2)nc2c1COC2")
5.7

So, `Cc1cc(/C=C/C#N)cc(C)c1Oc1nc(Nc2ccc(C#N)c(F)c2)nc2c1COC2.Cl` ? Its solubility was 38.9

###

System: Human immunodeficiency virus type 1 reverse transcriptase (Human immunodeficiency virus 1, UniProt Q72547)
Method description: Inhibition of wild type recombinant HIV-1 reverse transcriptase using biotin-labelled dNTPs as substrate assessed as inhibition of biotin-labelled UTP incorporation incubated for 1 hr by ELISA
Please provide measured IC50 for the entries that follow.
One number for each entry, in nM.

>>> measured_number("N#C/C=C/c1cc(F)c(Oc2nc(Nc3ccc(C#N)nc3)nc3ccsc23)c(F)c1")
40
>>> measured_number("Cc1cc(/C=C/C#N)cc(C)c1Oc1nc(Nc2ccc(C#N)nc2)nc2c1COC2")
40
>>> measured_number("N#C/C=C/c1cc(F)c(Oc2nc(Nc3ccc(C#N)c(F)c3)nc3c2COC3)c(F)c1")
30

So, `Cc1cc(/C=C/C#N)cc(C)c1Oc1nc(Nc2ccc(C#N)c(F)c2)nc2c1COC2` ? Its IC50 was 50

###

Method description: Half life in ICR mouse at 2 mg/kg, iv measured for 12 hrs by LC-MS/MS analysis
Format: ADME, organism-based
Condition description: in vivo
Endpoint: half-life (h)
Numbers only, in h.

So, `Cc1cc(/C=C/C#N)cc(C)c1Oc1nc(Nc2ccc(C#N)c(F)c2)nc2c1COC2.Cl` ? Its half-life was 1.43

###

Method description: Cmax in ICR mouse at 10 mg/kg, po measured for 12 hrs by LC-MS/MS analysis
Format: ADME, organism-based
Design: time 12 hrs, dose 10 mg/kg, route po
Condition description: in vivo
Endpoint: Cmax

So, `Cc1cc(/C=C/C#N)cc(C)c1Oc1nc(Nc2ccc(C#N)c(F)c2)nc2c1COC2.Cl` ? Its Cmax was 37.5 ng/mL

###

Method description: Cytotoxicity against human MT4 cells assessed as reduction in cell viability measured after 5 days by MTT assay
Type: toxicity, cell-based
Condition description: time 5 day
Endpoint: CC50 at 120 h
Please provide the amount together with its unit, number first.

Please review the entries below; each comes with its answer.
>>> result("Cc1cc(C#N)cc(C)c1Oc1nc(NC2CCN(c3ccc(N)cc3F)CC2)nc2ccsc12")
"12.1 µM"
>>> result("Cc1cc(/C=C/C#N)cc(C)c1Oc1nc(Nc2ccc(C#N)c(F)c2)nc2c1COC2")
"45.6 µM"
>>> result("Cc1cc(C#N)cc(C)c1Oc1nc(NC2CCN(c3c(F)cc(NS(N)(=O)=O)cc3F)CC2)nc2sccc12")
"3.96 µM"

// moving on: another record for CC50 at 120 h
So, `Cc1cc(/C=C/C#N)cc(C)c1Oc1nc(NC2CCN(c3c(F)cc(NS(N)(=O)=O)cc3F)CC2)nc2ccsc12` ? Its CC50 at 120 h was 20 µM

###

Method description: Cytotoxicity against human MT4 cells assessed as reduction in cell viability measured after 5 days by MTT assay
Type: toxicity, cell-based
Condition description: time 5 day
Please provide measured CC50 at 120 h for the entries that follow.
Give bare numbers, in µM.

Please review the entries below; each comes with its answer.
>>> measured_number("Cc1cc(/C=C/C#N)cc(C)c1Oc1nc(Nc2ccc(C#N)nc2)nc2c1COC2")
213
>>> measured_number("Cc1cc(-c2ccc(F)cc2)cc(C)c1Oc1nc(Nc2ccc(C#N)nc2)nc2sccc12")
2.23
>>> measured_number("Cc1cc(C#N)cc(C)c1Oc1nc(NC2CCN(c3c(F)cc(N)cc3F)CC2)nc2sccc12")
5.45

// moving on: another record for CC50 at 120 h
So, `Cc1cc(-c2ccc(F)cc2)cc(C)c1Oc1nc(Nc2ccc(C#N)c(F)c2)nc2sccc12` ? Its CC50 at 120 h was 28.9

###

Method description: Tmax in ICR mouse at 10 mg/kg, po measured for 12 hrs by LC-MS/MS analysis
Assay type: ADME, organism-based
Condition description: in vivo
Endpoint: Tmax (min)
Answers are plain numbers, in min.

So, `Cc1cc(/C=C/C#N)cc(C)c1Oc1nc(Nc2ccc(C#N)c(F)c2)nc2c1COC2.Cl` ? Its Tmax was 15
